assay: Oral bioavailability in rat at 5 mg/kg; format: ADME, organism-based; conditions: in vivo
Property: bioavailability

Prompt: # bioavailability lookup, item `CC(C)[C@@H](NC(=O)c1cc(C(F)(F)F)ccc1F)C(=O)N1CCC2(CC1)C(=O)N(C)C(=O)N2c1ccc2[nH]ncc2c1`
Response: 24%

* * *

molecular target: Cytochrome P450 2D6 (Homo sapiens, UniProt P10635)
Sequence (P10635 whole entry): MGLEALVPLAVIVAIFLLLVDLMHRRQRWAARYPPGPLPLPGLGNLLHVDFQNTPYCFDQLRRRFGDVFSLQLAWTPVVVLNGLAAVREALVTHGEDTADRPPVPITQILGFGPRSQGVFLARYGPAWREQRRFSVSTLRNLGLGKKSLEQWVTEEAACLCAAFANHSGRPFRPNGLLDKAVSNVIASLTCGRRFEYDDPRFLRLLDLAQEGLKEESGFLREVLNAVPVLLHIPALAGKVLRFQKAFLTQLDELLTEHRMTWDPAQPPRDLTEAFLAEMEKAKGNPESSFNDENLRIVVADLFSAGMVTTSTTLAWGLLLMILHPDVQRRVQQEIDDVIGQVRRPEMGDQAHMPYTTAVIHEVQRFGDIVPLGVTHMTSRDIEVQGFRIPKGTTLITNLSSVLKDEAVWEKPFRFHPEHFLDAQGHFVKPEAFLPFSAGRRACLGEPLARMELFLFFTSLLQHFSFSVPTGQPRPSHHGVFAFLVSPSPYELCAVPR
Property: IC50

Prompt: Write down the reported IC50 of `CC(C)[C@@H](NC(=O)c1cc(C(F)(F)F)ccc1F)C(=O)N1CCC2(CC1)C(=O)N(C)C(=O)N2c1ccc2[nH]ncc2c1` , test system: Cytochrome P450 2D6 (Homo sapiens, UniProt P10635).
Response: > 50 µM

* * *

biological target: Lysophosphatidic acid receptor 2 (Homo sapiens, UniProt Q9HBW0)
Sequence (Q9HBW0 whole entry): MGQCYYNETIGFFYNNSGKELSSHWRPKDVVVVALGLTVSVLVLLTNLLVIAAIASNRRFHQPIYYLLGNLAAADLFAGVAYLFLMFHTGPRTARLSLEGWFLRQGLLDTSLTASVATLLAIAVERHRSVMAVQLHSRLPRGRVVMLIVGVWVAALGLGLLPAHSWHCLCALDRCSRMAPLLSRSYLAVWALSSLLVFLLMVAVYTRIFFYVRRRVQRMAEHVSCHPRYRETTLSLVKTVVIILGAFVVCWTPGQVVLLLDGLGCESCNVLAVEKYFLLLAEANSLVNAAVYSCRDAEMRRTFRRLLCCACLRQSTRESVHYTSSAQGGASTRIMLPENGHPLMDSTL
pIC50: −log10 of the molar value.
Property: pIC50

Prompt: # pIC50 lookup, item `CC(C)[C@@H](NC(=O)c1cc(C(F)(F)F)ccc1F)C(=O)N1CCC2(CC1)C(=O)N(C)C(=O)N2c1ccc2[nH]ncc2c1`
Response: < 5.00

* * *

molecular target: Lysophosphatidic acid receptor 3 (Homo sapiens, UniProt Q9UBY5)
Sequence (Q9UBY5 whole entry): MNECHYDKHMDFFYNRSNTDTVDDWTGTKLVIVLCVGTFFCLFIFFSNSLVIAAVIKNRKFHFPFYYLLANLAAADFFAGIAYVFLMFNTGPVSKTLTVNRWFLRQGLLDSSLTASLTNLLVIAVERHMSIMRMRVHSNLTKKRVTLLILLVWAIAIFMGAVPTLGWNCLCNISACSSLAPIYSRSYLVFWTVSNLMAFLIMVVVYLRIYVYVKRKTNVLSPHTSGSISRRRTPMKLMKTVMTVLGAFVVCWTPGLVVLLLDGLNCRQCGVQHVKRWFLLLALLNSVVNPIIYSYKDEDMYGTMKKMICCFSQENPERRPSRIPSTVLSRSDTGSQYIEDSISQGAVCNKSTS
pIC50: −log10 of the molar value.
Property: pIC50

Prompt: # pIC50 lookup, item `CC(C)[C@@H](NC(=O)c1cc(C(F)(F)F)ccc1F)C(=O)N1CCC2(CC1)C(=O)N(C)C(=O)N2c1ccc2[nH]ncc2c1`
Response: < 5.00

* * *

biological target: Cytochrome P450 3A4 (Homo sapiens)
Sequence (P08684 whole entry): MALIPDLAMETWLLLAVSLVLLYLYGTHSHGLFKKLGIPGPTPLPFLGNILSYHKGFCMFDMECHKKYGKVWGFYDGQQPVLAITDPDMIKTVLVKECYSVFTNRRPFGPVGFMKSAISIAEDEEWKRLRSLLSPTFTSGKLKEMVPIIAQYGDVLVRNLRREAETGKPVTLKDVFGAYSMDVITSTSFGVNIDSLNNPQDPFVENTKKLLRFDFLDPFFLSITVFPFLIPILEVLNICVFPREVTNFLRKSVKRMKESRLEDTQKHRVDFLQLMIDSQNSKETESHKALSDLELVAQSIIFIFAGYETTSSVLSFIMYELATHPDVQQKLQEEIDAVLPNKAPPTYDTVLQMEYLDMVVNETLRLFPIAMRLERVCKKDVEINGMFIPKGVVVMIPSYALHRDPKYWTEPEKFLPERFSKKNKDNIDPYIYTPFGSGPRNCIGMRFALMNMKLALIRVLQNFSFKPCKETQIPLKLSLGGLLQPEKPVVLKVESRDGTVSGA
pIC50: −log10 of the molar value.
Property: pIC50

Prompt: # pIC50 lookup, item `CC(C)[C@@H](NC(=O)c1cc(C(F)(F)F)ccc1F)C(=O)N1CCC2(CC1)C(=O)N(C)C(=O)N2c1ccc2[nH]ncc2c1`
Response: < 4.30

* * *

molecular target: UniProt:Q92633
Sequence (Q92633 whole entry): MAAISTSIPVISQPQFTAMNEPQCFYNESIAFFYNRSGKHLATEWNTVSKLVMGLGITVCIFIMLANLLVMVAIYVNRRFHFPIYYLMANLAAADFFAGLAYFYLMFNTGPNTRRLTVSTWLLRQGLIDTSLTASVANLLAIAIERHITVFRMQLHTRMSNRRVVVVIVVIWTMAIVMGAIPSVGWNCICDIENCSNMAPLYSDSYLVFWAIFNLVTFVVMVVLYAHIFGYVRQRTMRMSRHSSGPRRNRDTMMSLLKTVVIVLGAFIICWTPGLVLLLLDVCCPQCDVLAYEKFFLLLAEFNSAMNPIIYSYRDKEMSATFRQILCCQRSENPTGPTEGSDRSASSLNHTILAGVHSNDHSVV
pIC50: −log10 of the molar value.
Property: pIC50

Prompt: # pIC50 lookup, item `CC(C)[C@@H](NC(=O)c1cc(C(F)(F)F)ccc1F)C(=O)N1CCC2(CC1)C(=O)N(C)C(=O)N2c1ccc2[nH]ncc2c1`
Response: < 5.00

* * *

target: Voltage-gated inwardly rectifying potassium channel KCNH2 (Homo sapiens, UniProt Q12809); assay: Inhibition of human ERG by manual patch clamp assay
Sequence (Q12809 whole entry): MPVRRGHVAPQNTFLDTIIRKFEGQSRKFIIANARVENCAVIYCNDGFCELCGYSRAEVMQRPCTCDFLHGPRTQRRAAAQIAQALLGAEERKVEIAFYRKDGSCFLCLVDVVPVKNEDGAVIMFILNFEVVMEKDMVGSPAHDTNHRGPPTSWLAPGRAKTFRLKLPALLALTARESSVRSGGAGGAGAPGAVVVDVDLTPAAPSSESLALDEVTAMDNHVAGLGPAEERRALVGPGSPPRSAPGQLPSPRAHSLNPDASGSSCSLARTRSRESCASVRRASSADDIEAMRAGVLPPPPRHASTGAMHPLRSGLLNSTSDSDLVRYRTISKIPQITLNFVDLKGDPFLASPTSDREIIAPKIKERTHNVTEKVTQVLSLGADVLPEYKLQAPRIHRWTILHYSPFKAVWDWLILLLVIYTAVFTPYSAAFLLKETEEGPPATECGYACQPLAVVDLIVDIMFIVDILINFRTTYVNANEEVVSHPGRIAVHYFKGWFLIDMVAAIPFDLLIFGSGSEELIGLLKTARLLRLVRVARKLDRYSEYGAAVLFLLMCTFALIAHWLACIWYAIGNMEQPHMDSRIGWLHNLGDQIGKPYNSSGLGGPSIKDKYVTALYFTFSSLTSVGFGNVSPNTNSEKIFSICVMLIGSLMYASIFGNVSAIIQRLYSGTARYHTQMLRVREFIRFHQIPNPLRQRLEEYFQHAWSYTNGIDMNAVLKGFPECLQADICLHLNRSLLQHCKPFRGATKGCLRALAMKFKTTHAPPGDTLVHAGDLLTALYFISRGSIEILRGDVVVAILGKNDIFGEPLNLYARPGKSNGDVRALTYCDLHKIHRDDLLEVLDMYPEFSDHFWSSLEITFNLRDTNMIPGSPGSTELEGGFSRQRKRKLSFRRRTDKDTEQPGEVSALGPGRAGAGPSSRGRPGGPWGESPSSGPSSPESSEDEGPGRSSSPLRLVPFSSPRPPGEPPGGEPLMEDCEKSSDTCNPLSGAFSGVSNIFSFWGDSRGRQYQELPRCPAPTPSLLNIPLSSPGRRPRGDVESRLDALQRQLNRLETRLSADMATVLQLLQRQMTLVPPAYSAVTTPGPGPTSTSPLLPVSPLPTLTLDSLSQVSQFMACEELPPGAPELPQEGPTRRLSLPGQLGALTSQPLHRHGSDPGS
Property: IC50

Prompt: # IC50 lookup, item `CC(C)[C@@H](NC(=O)c1cc(C(F)(F)F)ccc1F)C(=O)N1CCC2(CC1)C(=O)N(C)C(=O)N2c1ccc2[nH]ncc2c1`
Response: > 50 µM

* * *

assay: Half life in mouse at 1 mg/kg, iv; format: ADME, organism-based; details: in vivo
Property: half-life (min)
Respond numerically; units are min and should not be typed.

Prompt: # half-life lookup, item `CC(C)[C@@H](NC(=O)c1cc(C(F)(F)F)ccc1F)C(=O)N1CCC2(CC1)C(=O)N(C)C(=O)N2c1ccc2[nH]ncc2c1`
Response: 34.2

* * *

experiment: Volume of distribution at steady state in mouse at 1 mg/kg, iv; type: ADME, organism-based; details: in vivo, read-out: Vdss
Property: Vd

Prompt: # Vd lookup, item `CC(C)[C@@H](NC(=O)c1cc(C(F)(F)F)ccc1F)C(=O)N1CCC2(CC1)C(=O)N(C)C(=O)N2c1ccc2[nH]ncc2c1`
Response: 1.38 L/kg

* * *

assay: Half life in human liver microsomes; type: ADME, Microsome
Property: half-life (h)
Respond numerically; units are h and should not be typed.

Prompt: # half-life lookup, item `CC(C)[C@@H](NC(=O)c1cc(C(F)(F)F)ccc1F)C(=O)N1CCC2(CC1)C(=O)N(C)C(=O)N2c1ccc2[nH]ncc2c1`
Response: 8.88

* * *

biological target: Autotaxin (Homo sapiens, UniProt Q13822); experiment: Inhibition of C-terminal FLAG-tagged human autotaxin expressed in Freestyle 293 cells using synthetic substrate FS-3 by fluorescence based assay; format: cell-based
The following molecules are shown together with reported pIC50 values.
Quick note: pIC50 means taking -log10 of the concentration in moles per liter.

In the examples that follow, each entry is paired with its recorded pIC50.
INSERT INTO results (compound_smiles, target_under_test, assay_result) VALUES
  ('CC(C)[C@@H](NC(=O)c1cccc(F)c1)C(=O)N1CCC2(CC1)C(=O)N(C)CN2c1ccccc1', 'Autotaxin (Homo sapiens, UniProt Q13822)', 8.66),
  ('Cc1cccc(C(=O)N[C@@H](C(=O)N2CCC3(CC2)C(=O)N(C)CN3c2ccccc2)C2CCCCC2)c1F', 'Autotaxin (Homo sapiens, UniProt Q13822)', 8.80),
  ('Cc1cccc(C(=O)N[C@@H](C(=O)N2CCC3(CC2)C(=O)N(C)CN3c2ccccc2)C(C)C)c1', 'Autotaxin (Homo sapiens, UniProt Q13822)', 8.70),
  ('CNC(=O)CN1CN(c2ccccc2)C2(CCN(C(=O)[C@H](NC(=O)c3cccc(C)c3F)C3CCCCC3)CC2)C1=O', 'Autotaxin (Homo sapiens, UniProt Q13822)', 8.70),
  ('CNC(=O)CN1CN(c2ccccc2)C2(CCN(C(=O)[C@H](NC(=O)c3cccc(Cl)c3)C3CCCCC3)CC2)C1=O', 'Autotaxin (Homo sapiens, UniProt Q13822)', 8.46);

# input for lookup
Prompt: # pIC50 lookup, item `CNC(=O)CN1CN(c2ccccc2)C2(CCN(C(=O)[C@H](NC(=O)c3ccccc3)C3CCCCC3)CC2)C1=O`
Response: 6.46

* * *

experiment: Half life in mouse at 10 mg/kg, po; type: ADME, organism-based; details: in vivo
Property: half-life (h)
Respond numerically; units are h and should not be typed.

Prompt: # half-life lookup, item `CC(C)[C@@H](NC(=O)c1cc(C(F)(F)F)ccc1F)C(=O)N1CCC2(CC1)C(=O)N(C)C(=O)N2c1ccc2[nH]ncc2c1`
Response: 2.5

* * *

assay: Clearance in dog at 1 mg/kg, iv; assay type: ADME, organism-based, Canis lupus familiaris; settings: in vivo
Property: clearance (mL/min/kg)
Respond numerically; units are mL/min/kg and should not be typed.

Prompt: # clearance lookup, item `CC(C)[C@@H](NC(=O)c1cc(C(F)(F)F)ccc1F)C(=O)N1CCC2(CC1)C(=O)N(C)C(=O)N2c1ccc2[nH]ncc2c1`
Response: 7.96

* * *

experiment: Half life in rat liver microsomes; type: ADME, Microsome
Property: half-life
# include the unit after the value

Prompt: # half-life lookup, item `CC(C)[C@@H](NC(=O)c1cc(C(F)(F)F)ccc1F)C(=O)N1CCC2(CC1)C(=O)N(C)C(=O)N2c1ccc2[nH]ncc2c1`
Response: 4.62 h

* * *

experiment: Half life in rat at 1 mg/kg, iv; format: ADME, organism-based; conditions: in vivo
Property: half-life

Prompt: # half-life lookup, item `CC(C)[C@@H](NC(=O)c1cc(C(F)(F)F)ccc1F)C(=O)N1CCC2(CC1)C(=O)N(C)C(=O)N2c1ccc2[nH]ncc2c1`
Response: 1.5 h

* * *

experiment: AUClast in dog at 1 mg/kg, po; format: ADME, organism-based, Canis lupus familiaris; parameters: dose 1 mg/kg, time 0 - last, route oral; details: in vivo
Property: AUC(0-t) (ng·h/mL)
Respond numerically; units are ng·h/mL and should not be typed.

Prompt: # AUC(0-t) lookup, item `CC(C)[C@@H](NC(=O)c1cc(C(F)(F)F)ccc1F)C(=O)N1CCC2(CC1)C(=O)N(C)C(=O)N2c1ccc2[nH]ncc2c1`
Response: 3080

* * *

target: Voltage-gated inwardly rectifying potassium channel KCNH2 (Homo sapiens, UniProt Q12809); assay: Inhibition of human ERG by GLP based assay
pIC50: −log10 of the molar value.
Property: pIC50

Prompt: # pIC50 lookup, item `CC(C)[C@@H](NC(=O)c1cc(C(F)(F)F)ccc1F)C(=O)N1CCC2(CC1)C(=O)N(C)C(=O)N2c1ccc2[nH]ncc2c1`
Response: < 4.30

* * *

biological target: Autotaxin (Homo sapiens, UniProt Q13822); assay: Inhibition of C-terminal FLAG-tagged human autotaxin expressed in Freestyle 293 cells assessed as reduction in choline release from LPC 16:0 pre-incubated for 10 mins before LPC addition and measured after 1 hr by choline oxidase/HRP coupled assay; format: cell-based
Values of IC50 strictly less than 300 nM map to Satisfied, and values of at least 300 nM map to Not satisfied.

Examples from the recorded data:
INSERT INTO assay_data (compound_smiles, classification) VALUES
  ('Cc1ccc(N2C(=O)N(C)C(=O)C23CCN(C(=O)[C@H](NC(=O)c2cc(C(F)(F)F)ccc2F)C(C)C)CC3)cc1', 'Satisfied'),
  ('CC(C)[C@@H](NC(=O)c1cc(C(F)(F)F)ccc1Cl)C(=O)N1CCC2(CC1)C(=O)N(C)C(=O)N2c1ccc2[nH]ncc2c1', 'Not satisfied'),
  ('Cc1cccc(C(=O)N[C@@H](C(=O)N2CCC3(CC2)C(=O)N(C)CN3c2ccccn2)C2CCCCC2)c1', 'Not satisfied');

Prompt: # TODO verify IC50 < 300 nM strictly for this molecule: `CN1C(=O)N(c2ccc3[nH]ncc3c2)C2(CCN(C(=O)[C@H](NC(=O)c3cc(C(F)(F)F)ccc3F)C3CCCC3)CC2)C1=O`
Response: Satisfied

Prompt: Next up: `Cc1cccc(C(=O)N[C@@H](C(=O)N2CCC3(CC2)C(=O)N(C)CN3c2ccccc2)C2CCOCC2)c1`
Response: Not satisfied

Prompt: Next up: `CNC(=O)CN1CN(c2ccccc2)C2(CCN(C(=O)[C@H](NC(=O)c3cccc(C)c3F)C3CCCCC3)CC2)C1=O`
Response: Satisfied

Prompt: Next up: `CC(C)[C@@H](NC(=O)c1cccc(C(F)(F)F)c1)C(=O)N1CCC2(CC1)C(=O)N(C)C(=O)N2c1ccc2[nH]ncc2c1`
Response: Not satisfied
